Test: in vitro
Format: in vitro ADME
Conditions: human, 30 min, 0.5 μM
observable: Residual rate (%) 30 min
Numbers only, in %.

CC(C)[N+](C)(CCOC(=O)C1c2ccccc2Oc2ccccc21)C(C)C [Propantheline, reference compound] = 50.52
C=CC(=O)N1C[C@H](C)N(c2nc(=O)n(-c3c(SC)ccnc3C(C)C)c3nc(-c4c(N)ccc(Cl)c4F)c(Cl)cc23)C[C@H]1C (single isomer, unassigned) [Embodiment 165-1] = 100.28

Would you mind listing Residual rate (%) 30 min for each of the following compounds?
1. C=CC(=O)N1C[C@H](C)N(c2nc(=O)n(-c3c(SC)ccnc3C(C)C)c3nc(-c4c(O)cccc4F)c(Cl)cc23)C[C@H]1C (single isomer, unassigned) [Embodiment 166-1]
2. C=CC(=O)N1CCN(c2nc(=O)n(-c3c(C)ccnc3C(C)C)c3nc(-c4c(O)cccc4F)c(F)cc23)[C@@H](C)C1 [AMG 510, reference compound]

Reply:
94.74
85.72

Source listed as patent US12497396B2.
